- TARGET: PfCSPC, C-terminal αTSR domain of P. falciparum NF54 circumsporozoite protein (E310-S384) (P. falciparum NF54, UniProt P19597)
- Sequence (P19597 310-384): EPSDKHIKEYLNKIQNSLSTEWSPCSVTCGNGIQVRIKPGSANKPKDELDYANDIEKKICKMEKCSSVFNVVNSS
ATTRIBUTE MEASURED: binding result

INSERT INTO results (binder, reported_value) VALUES
  ('sdAb2 (VHH) VHH: QVQLQESGGGLVQFGGSLRLSCAASGFTFSSANMSWVRQAPGKGLEWVSTISPGGGTTSYAGSVKGRFTISRDNAKNTLYLQMNALKPEDTAVYYCATGGPSSQESVYRGQGTQVTVSS', 'binds'),
  ('sdAb15 (VHH) VHH: QVQLQESGGGLVQAGGSLRLSCVATGRPFDDYTVAWFRQAPGKERDFVAAISRSGVSTYYQDDVKGRFTISRDNARNTAYLSMNSLKPEDTAVYYCAARSTIRLLTDPSYDYWGQGTQVTVSS', 'binds'),
  ('sdAb7 (VHH) VHH: QVQLQESGGGVVQTGGSLRLSCAASVRTFSNYALGWFRQAPGKEREFVARISSSGGNTYYADSVRGRFTISRDNAKNTVYLQMNSLKPEDTAVYYCAADLLQFGRSSRAADYDYWGQGTQVTVSS', 'binds');
